All values here come from ChEMBL document CHEMBL1201862.

A collection of molecules and their measured GI50
- Test system: CAKI-1
- Experiment summary: NCI tumour cell line growth inhibition, 48 h
Calls of active or inactive are those of the source. Rule as the data show it: active = GI50 up to about 1.1 µM and inactive = higher.

Please report GI50 for the following molecule: `COc1cc(/C=C/c2ccc(OC(C)=O)cc2)cc(OC)c1OC` 27.9 µM (inactive)

Please report GI50 for the following molecule: `CCOC(=O)c1cc2ncccc2c2ccccc12` > 100 µM (inactive)

Please report GI50 for the following molecule: c1ccc2c(c1)CCN1CCc3c([nH]c4ccccc34)C21 (stereo not given) 30.3 µM (inactive)

Please report GI50 for the following molecule: `O=c1[nH]nc(Cc2ccccc2)n1/N=C/c1ccco1` > 100 µM (inactive)

Please report GI50 for the following molecule: `CSc1ccsc1-c1sc(-c2cc(SC)c(-c3sc(-c4cc(SC)c(-c5sccc5SC)s4)cc3SC)s2)cc1SC` 17.2 µM (inactive)

***
Please report GI50 for the following molecule: CC(=O)SC(C[N+](=O)[O-])c1ccc2c(c1)OCO2 (stereo not given) 6.56 µM (inactive)

Please report GI50 for the following molecule: `O=C(NCc1ccccc1)c1c(O)nc2ccccc2c1O` > 100 µM (inactive)

Please report GI50 for the following molecule: `COc1cc2c(cc1O)CCN(C)[C@H]2Cc1ccc(Oc2c(O)c(OC)cc3c2C[C@H]2c4c(c(OC)c(OC)c(OC)c4-3)CCN2C)cc1` 5.06 µM (inactive)

Please report GI50 for the following molecule: `Nc1nc(Cl)cc(NC23CC4CC(CC(C4)C2)C3)n1` > 100 µM (inactive)

Please report GI50 for the following molecule: `CC(C)=CC(=O)c1c(C(=O)O)nc2ccccc2[n+]1[O-]` > 100 µM (inactive)
